Origin of values: the Deep4Chem optical property database

testDetails: solvent given as SMILES
reportedConditions: in CC#N
Classification field: 1 (yes) = absorption maximum at or over 400 nm; 0 (no) = absorption maximum under 400 nm.

Sample answers from the record:
>>> assignedcategory("c1ccc(-c2nc(-c3ccc(-c4ccc(N(c5ccccc5)c5ccccc5)cc4)cn3)oc2-c2ccccc2)cc1")
"0 (no)"
>>> assignedcategory("O=c1oc2ccccc2cc1/C=C/c1ccccc1")
"0 (no)"
>>> assignedcategory("CCCCCCCCN1c2ccc(C#Cc3ccc(F)cc3)cc2Sc2cc(C=O)ccc21")
"0 (no)"
>>> assignedcategory("CCOC(=O)COc1ccc(/C=C/c2c(CC)c(C)c3n2[B-](F)(F)[N+]2=C(c4[nH]c(C)c(CC)c4C)c4ccccc4C2=C3C)cc1")
"1 (yes)"
>>> assignedcategory("O=C([O-])c1ccccc1C1=c2cc3c4c(c2Oc2c1cc1c5c2CCCN5CCC1)CCC[N+]=4CCC3")
"1 (yes)"

Q. Check if absorption maximum >= 400 nm (inclusive). Item: c1ccc2c(-c3cc(-c4nccs4)nc(-c4nccs4)c3)cccc2c1
A. 0 (no)

Q. # bool: absorption maximum of F[B-]1(F)n2c(c3cccc4cccc2c43)=Nc2cccc[n+]21 >= 400 nm
A. 1 (yes)

Q. API: above_or_equal(metric=absorption maximum, cutoff=400 nm) for item O=c1oc2ccc(Cl)cc2cc1-c1cc2cc(Cl)ccc2o1
A. 0 (no)

Q. Test whether the compound CN(C)c1nc(N)nc2c1nc(C#N)n2Cc1ccccc1 records absorption maximum of 400 nm or higher.
A. 0 (no)

Q. Check this compound for absorption maximum at or above 400 nm: F[B-]1(F)OC(c2ccc(C(F)(F)F)cc2)=Cc2cc(Cl)nc[n+]21
A. 0 (no)

Q. Hi, just wondering whether CCCCC1(CCCC)c2cc(C#Cc3ccc4ccc5cccc6ccc3c4c56)ccc2-c2ccc(C#Cc3ccc4ccc5cccc6ccc3c4c56)cc21 shows absorption maximum of 400 nm or higher.
A. 1 (yes)

Q. Check if absorption maximum >= 400 nm (inclusive). Item: CCN1c2ccc(-c3cc(C(F)(F)F)[nH]n3)cc2Sc2cc(-c3cc(C(F)(F)F)[nH]n3)ccc21
A. 0 (no)
